systemName: ParRC(pCW3) (Clostridium perfringens plasmid pCW3, UniProt Q1PLJ8 1-87)
assayProtocol: SPR; high values mean tight binding
assayContext: protein: recombinant; tags: C-terminal His6; chain copies: 4; label: 3' 20-nt overhang of comp strand annealed to immobilized 5'-biotin ReDCaT linker; dsDNA, one strand shown
log10 binding signal: recorded values
Please note: log10 values; quantity binding signal; unit RU.

Observe how each entry below is paired with its result.
For the sequence `ACAATTTTACATAATAGAAAGGATTGATAA` , what log10 binding signal is on record?
0.63

For the sequence `AAACATCACAATTTTACGGAAAATGCTTGA` , what log10 binding signal is on record?
2.45

For the sequence `AATTAAAAACATCACAATTTTACGTAATGA` , what log10 binding signal is on record?
2.41

For the sequence `TTTTGCAAGTAAAAAACATCACAATTTTAC` , what log10 binding signal is on record?
2.34

For the sequence `AATATAAAAACATAAACATCACAATTTTAC` , what log10 binding signal is on record?
2.19

New cases:
For the sequence `GTAATTTAGATTTTGCAAGTAAAAAACATC` , what log10 binding signal is on record?
1.63

For the sequence `ATCACAATTTTACGTAATGACAGTTTGTTG` , what log10 binding signal is on record?
1.74

Ref: paper PMC9426499
